Data origin, for the record: paper PMC5540273

Tested on: FGFR2
assay context: concentration: 1 μM, replicates: in singlicate; n = 1;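 note: KINOMEscan kinase panel screen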
reported metric: %Inh (%)
The reply should contain only the number, in %.

Need %Inh of CN(c1ccc(NC(=O)N2CCN(CCCN3CCOCC3)CC2)cc1)c1ccnc(Nc2ccc(CS(C)(=O)=O)cc2)n1.Cl , thanks. 9

// repeat for Fc1cc(Cl)ccc1Nc1ccnc2cc(-c3ccc(CN4CCOCC4)o3)ccc12 and report 33

Then CC(C)c1nc(-c2cccc(NS(=O)(=O)c3c(F)cccc3F)c2)c(-c2ccnc(Nc3ccc(N4CCOCC4)nc3)n2)s1.Cl ? 0

Would you mind doing N#Cc1cnc2cc(-c3cnc(CNCCN4CCOCC4)s3)ccc2c1Nc1ccc(Oc2ccccc2)cc1 as well? 0

Queued: CN1CCN(Cc2ccc(NC(=O)Nc3ccc(N(C)c4ccnc(Nc5ccc(CS(C)(=O)=O)cc5)n4)cc3)cc2)CC1.Cl 23

Please give the result for O=C(Nc1n[nH]c2nc(-c3cccc(O)c3)ccc12)C1CC1 too. 0

Then this compound: Nc1ncnc2scc(-c3ccc(NC(=O)Cc4cc(F)ccc4F)cc3)c12.O=C(O)C(F)(F)F 100

Now consider Cc1ccc(NC(=O)c2ccc(Cl)c(Cl)c2)cc1-c1ccc(C(=O)Nc2ccncc2)cc1 and answer again. 0

Proceed to Cc1ccc(NC(=O)c2cccc(N3CCCCC3)c2)cc1-c1ccc(C(=O)NCC2CC2)cc1 20

How about Cc1cc(-c2c(-c3ccc(F)cc3)ncn2CCCN2CCOCC2)nc(N)n1 ? 0

Cool, now O=C(O)C(F)(F)F.O=c1[nH]ccc2nc(N[C@@H]3CCNC3)nc(Nc3ccc4c(c3)S(=O)(=O)CC4)c12 33

Next: Cl.N#CCc1ccc(Nc2nccc(Nc3ccc(Oc4ccccc4)cc3)n2)cc1 8

Cool, now O=C(Nc1n[nH]c2nc(-c3ccccc3)ccc12)C1CC1 33

Moving on to CCOc1nccc(-c2c(-c3ccc(F)cc3)ncn2C2CCNCC2)n1 3

Would you mind doing CC(C)NCC(Cc1ccccc1)NC(=O)c1cc(Br)c(-c2ccnc3[nH]ccc23)s1.Cl.Cl (stereo not drawn) as well? 62

Param item: Cc1ccccc1CC(=O)N1CCc2cc(-c3cn(C)c4ncnc(N)c34)ccc21 14

Also check COC(=O)Nc1nc2ccc(Oc3ccc(CC(=O)Nc4cc(C(F)(F)F)ccc4F)cc3)cc2[nH]1 6

Query COc1ccc(C)c(Nc2ccnc(Nc3ccc(-c4cnc[nH]4)cc3)n2)c1.Cl next 4

Please answer likewise for CN(c1ccc(NC(=O)Nc2cccc(Cl)c2)cc1)c1ccnc(N)n1.Cl 0

What do we get for N#CC1(c2cccc(C(=O)Nc3cccc(Oc4ccc5nc(NC(=O)C6CC6)sc5n4)c3)c2)CC1 ? 95.3

Try the compound O=C(O)C(F)(F)F.O=c1[nH]ccc2nc(N[C@@H]3CCNC3)nc(Nc3cc(Cl)cc(Cl)c3)c12 0

For Cc1ccc(O)cc1Nc1ccnc2cc(-c3ccc(CN4CCCCC4)o3)ccc12 then? 21

Same thing, different compound: COC(=O)Nc1nc2ccc(Oc3ccc(NC(=O)Nc4cc(C(F)(F)F)ccc4F)cc3)cc2[nH]1.Cl 63

Lookup CN(C)c1ncnc2nc[nH]c12 0

Again, but for COC(=O)Nc1nc2cc(Oc3ccc(NC(=O)Nc4cccc(SC)c4)cc3)ccc2[nH]1.Cl 5

Again, but for COc1cccc(NC(=O)NCCNc2ccnc(Nc3ccc(F)cc3)n2)c1 53

Try the compound CC(=O)Nc1cn2nc(Oc3cccc(NC(=O)c4cccc(C(F)(F)F)c4)c3)ccc2n1 91.4

Then what about the compound CCNC(=O)/C=C/c1n[nH]c2cc(Sc3ccccc3C(=O)NC)ccc12 ? 74

Same thing, different compound: CCNc1nccc(-c2c(-c3ccc(F)cc3)ncn2C2CCN(C)CC2)n1 6

What do you get for COc1ccc(NC(=O)c2ccoc2)cc1-c1ccc(C(=O)NCC2CC2)cc1 ? 0

Try the compound CC(C)(C)c1ccc(C(=O)Nc2cn3cc(-n4ccnc4)ccc3n2)cc1 22

Queued: Cc1cc(-c2ccnc(Nc3cccc(C#N)c3)n2)cc(C)c1O 54

Try this compound too: COc1cc(Nc2nccc(N3CCC(NS(=O)(=O)c4ccc(NC(C)=O)cc4)CC3)n2)cc(OC)c1OC 71

###

Test system: EPHB4
assay context: concentration: 1 μM, replicates: in singlicate; n = 1
Record form. Attribute: %Inh. Fill in for each entry.
Just the number in %, nothing appended.

What value of %Inh has been reported for the following molecule? CS(=O)(=O)c1cccc(CNc2nc(Nc3ccc4c(c3)CCC(=O)N4)ncc2C(F)(F)F)c1 0

Consider next the molecule Cn1cc(-c2ccc3c(c2)CCN3C(=O)Cc2cc(F)cc(C(F)(F)F)c2)c2c(N)ncnc21 [GSK2635225] in the same way. 8

Likewise for COc1ccc(C2=C(Nc3cccc(O)c3)C(=O)NC2=O)cc1 [SB-390766] ? 0

Would you mind doing O=C(Nc1n[nH]c2nc(-c3cccc(O)c3)ccc12)C1CC1 [SB-711805] as well? 5

What do we get for Cl.O=C(Nc1ccc(Oc2ccc3[nH]c(NC(=O)c4ccco4)nc3c2)cc1)Nc1cc(C(F)(F)F)ccc1F [GW683134] ? 60

Next up: Nc1ncc(-c2cn[nH]c2)c2scc(-c3ccc4c(c3)CCN4C(=O)Cc3ccccc3)c12 [GSK2593067] 0

And Cc1ccc(-c2ccc3occ(-c4ccc(S(C)=O)cc4)c3c2)nn1 (stereo not drawn) ? 6

Also need CCNC(=O)/C=C/c1n[nH]c2cc(Sc3ccccc3C(=O)NC)ccc12 , thanks. 14

Next: COc1ccc(C)c(Nc2ccnc(Nc3ccc(-c4cnc[nH]4)cc3)n2)c1.Cl [GW784041] 60

###

System: RSK2(Kin.Dom.2-C-terminal)
Construct: gene RPS6KA3
assay context: concentration: 1 μM, replicates: in singlicate; n = 1
reported metric: %Inh (%)
# value in %; strip the unit string

Which value of %Inh has been reported for COc1cccc(CC(=O)N2CCc3cc(-c4cn(C)c5ncnc(N)c45)ccc32)c1 in the records? 17

Also Cc1ccc(NC(=O)c2ccc(Cl)c(Cl)c2)cc1-c1ccc(C(=O)Nc2ccncc2)cc1 ? 22

What do you have for CCNc1nccc(-c2c(-c3ccc(F)cc3)ncn2C2CCN(C)CC2)n1 ? 15

Next entry: CN1CCN(Cc2ccc(NC(=O)Nc3ccc(N(C)c4ccnc(Nc5ccc(CS(C)(=O)=O)cc5)n4)cc3)cc2)CC1.Cl 46

Then what about the compound COc1cc(Nc2nccc(N3CCC(NS(=O)(=O)c4ccc(NC(C)=O)cc4)CC3)n2)cc(OC)c1OC ? 24

Similarly, Cl.O=C(Nc1ccc(Oc2ccc3[nH]c(NC(=O)c4ccco4)nc3c2)cc1)Nc1cc(C(F)(F)F)ccc1F ? 3

# iterate: CCNC(=O)/C=C/c1n[nH]c2cc(Sc3ccccc3C(=O)NC)ccc12 0

Next compound: N#CC1(c2cccc(C(=O)Nc3cccc(Oc4ccc5nc(NC(=O)C6CC6)sc5n4)c3)c2)CC1 1

###

System: GSK3B
assay context: concentration: 1 μM, replicates: in singlicate; n = 1
Could you please report measured %Inh for the items listed next?
Note: unit % is implicit; provide only the numeric part.

What %Inh value was documented for this molecule, Nc1cccc(-c2ccc3c(N)n[nH]c3c2)c1 [GSK2193613] ? 96.2

Further, for COc1cc(Nc2ccnc3cc(-c4ccncc4)ccc23)cc(OC)c1OC.Cl [GW494610] ? 0

# iterate: Cc1ccc(NC(=O)c2ccnc(N3CCCCC3)c2)cc1-c1ccc(C(=O)NCC2CC2)cc1 [GW775610] 0

What about CN(C)c1ncnc2nc[nH]c12 [SKF-31736] ? 28

Another molecule: CN(c1ccc(NC(=O)N2CCN(CCCN3CCOCC3)CC2)cc1)c1ccnc(Nc2ccc(CS(C)(=O)=O)cc2)n1.Cl [GW830899] 0

###

Test system: EPHA8
assay context: concentration: 1 μM, replicates: in singlicate; n = 1
Give measured %Inh for each item. Keep answers brief.
I only need the number, in %, no unit after it.

Provide value of %Inh for this record tested with EPHA8: CCNC(=O)/C=C/c1n[nH]c2cc(Sc3ccccc3C(=O)NC)ccc12 0

c1ccc(Oc2ccc(Nc3ccnc4cc(-c5ccc(CN6CCCCC6)o5)ccc34)cc2)nc1 , same question. 12

Next record, please: COc1cc(Nc2nccc(N3CCC(NC(=O)Nc4ccc5c(c4)OCO5)C3)n2)cc(OC)c1OC (stereo not shown) 3

Then what about the compound CN(c1ccc(NC(=O)N2CCN(CCCN3CCOCC3)CC2)cc1)c1ccnc(Nc2ccc(CS(C)(=O)=O)cc2)n1.Cl ? 0

###

Tested on: CDKL5
assay context: concentration: 1 μM, replicates: in singlicate; n = 1
reported metric: %Inh (%)
Express it in %; write the number only.

Name the recorded %Inh for Cc1ccc(Nc2ccnc(Nc3ccc(C)c(F)c3)n2)cc1O.Cl [GW582868] . 0

Try COc1cc(Nc2nccc(N3CCC(NS(=O)(=O)c4ccc(NC(C)=O)cc4)CC3)n2)cc(OC)c1OC [GSK1379825] next. 0

What about this molecule? COc1ccc(C2=C(Nc3cccc(O)c3)C(=O)NC2=O)cc1 [SB-390766] 3

Next molecule: Nc1ncnc2scc(-c3ccc(NC(=O)Cc4cc(F)ccc4F)cc3)c12.O=C(O)C(F)(F)F [SB-731254-M] 5

Same thing, different molecule: Cc1ccc(NC(=O)c2cccc(N3CCCCC3)c2)cc1-c1ccc(C(=O)NCC2CC2)cc1 [GSK1917008] 7

// same read-out, input: COc1cccc(CC(=O)N2CCc3cc(-c4cn(C)c5ncnc(N)c45)ccc32)c1 [GSK2608899] 0

Quick one: COc1cc(Nc2ccnc3cc(-c4ccncc4)ccc23)cc(OC)c1OC.Cl [GW494610] 0

Another molecule: Cn1cc(-c2cnc(N)c3c(-c4ccc5c(c4)CCN5C(=O)Cc4ccccc4)csc23)cn1 [GSK2593074] 0

Let us now turn to Cl.Cl.NC(CNC(=O)c1cc(Br)c(-c2ccnc3[nH]ccc23)s1)c1ccccc1 (stereo not shown) [GSK1322949] 5

Ok, now CN(C)c1ncnc2nc[nH]c12 [SKF-31736] 19

Also check CN1CCN(Cc2ccc(NC(=O)Nc3ccc(N(C)c4ccnc(Nc5ccc(CS(C)(=O)=O)cc5)n4)cc3)cc2)CC1.Cl [GW827654] 0

Again, but for Cc1cccc(Nc2nc(NCCN)ncc2C(N)=O)c1 [GSK1292139] 0

Entry COc1cccc(NC(=O)NCCNc2ccnc(Nc3ccc(F)cc3)n2)c1 [GSK1379879] please 0

What do you have for Cc1ccc(O)cc1Nc1ccnc2cc(-c3ccc(CN4CCCCC4)o3)ccc12 [GW557777] ? 0

And Cc1nn2c(=O)cc(N3CCO[C@H](C)C3)nc2n1Cc1cccc(Cl)c1Cl [GSK2373693] ? 0

Follow-up entry: O=C(Nc1c(F)cccc1F)c1cc(C(=O)c2ccccc2F)c[nH]1 [GSK1326180] 0
